target: Streptavidin (Streptomyces avidinii) (UniProt P22629); experiment: streptavidin binders on small-molecule microarray, primary screen, artefact control for SMM compound annotation, biophysical, 635/667 nm fluorescence (AID 1147); conditions: streptavidin binding, higher = more signal;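 further: signal reflects streptavidin binding to arrayed compounds as a control protein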
Sequence (P22629 whole entry, looked up): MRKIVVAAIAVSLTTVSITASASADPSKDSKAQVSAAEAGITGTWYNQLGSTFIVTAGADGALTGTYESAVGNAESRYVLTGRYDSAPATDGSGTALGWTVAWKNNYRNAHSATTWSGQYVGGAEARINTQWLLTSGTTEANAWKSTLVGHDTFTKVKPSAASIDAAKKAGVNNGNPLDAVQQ
composite z-score: recorded values

Would you please look over these solved cases?
1. CN(C)CCCCNC(=O)[C@H]1C[C@H]2C(=O)N[C@@H](CCCC[N+](C)(C)C)C(=O)N2[C@H]1c1ccc(O)cc1 = -0.202
2. COc1cc2c(cc1O)C(c1ccc(CN3CCCC3)cc1)N(C)CC2 (centres undefined) = -0.317

[Q] Can you share its composite z-score? I mean this molecule: CC(C)[C@H]1NC(=O)[C@@]23C(=O)N[C@@H](Cc4ccccc4)C2[C@H](C)[C@@]2(C)O[C@H]2C3/C=C/C/C=C\CNC(=O)[C@H](Cc2ccccc2)NC1=O (some centres undefined)
[A] 0.852

[Q] Form field: reported composite z-score of O=C1O[C@H](c2ccccc2)[C@H](c2ccccc2)N2[C@H]1[C@@H](C(=O)O)[C@]1(C(=O)Nc3ccc(C#CC4(O)CCCCCC4)cc31)[C@H]2c1ccc(O)cc1
[A] -0.467
